Target: 348 GPCRs (Homo sapiens, UniProt Q9UNW8)
Construct: expressed in transfected cells; host or cells: HEK293A
Sequence (Q9UNW8 1-380): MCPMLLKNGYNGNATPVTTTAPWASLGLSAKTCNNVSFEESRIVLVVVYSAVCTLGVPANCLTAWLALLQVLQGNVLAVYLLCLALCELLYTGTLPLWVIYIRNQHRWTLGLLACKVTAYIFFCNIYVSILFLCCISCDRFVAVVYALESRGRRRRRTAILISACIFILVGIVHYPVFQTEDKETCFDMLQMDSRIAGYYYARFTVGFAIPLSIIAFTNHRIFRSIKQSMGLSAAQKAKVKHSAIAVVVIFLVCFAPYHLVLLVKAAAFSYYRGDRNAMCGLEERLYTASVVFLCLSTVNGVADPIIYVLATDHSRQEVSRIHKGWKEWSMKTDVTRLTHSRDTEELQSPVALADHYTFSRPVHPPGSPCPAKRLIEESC
Assay: TGFα-shedding assay-based GPCR screening with chimeric Gα subunit proteins
Type: cell-based
Conditions: G2A (GPR132); 10µM, Favipiravir 100μM
PROPERTY_NAME: % GPCR activation compared to TPA (%)
Quick note: give the figure in %, leave out the unit.

{"columns": ["COMPOUND", "PROPERTY_NAME", "VALUE_UNIT", "VALUE_OBSERVED"],
 "data": [
  ["CC(C)C(=O)OC[C@H]1O[C@@H](n2ccc(NO)nc2=O)[C@H](O)[C@@H]1O [molnupiravir]", "% GPCR activation compared to TPA", "%", -1.8016]
]}

Challenge: Retrieve % GPCR activation compared to TPA measured for CC(C)OC(=O)[C@H](C)N[P@](=O)(OC[C@H]1O[C@@H](n2ccc(=O)[nH]c2=O)[C@](C)(F)[C@@H]1O)Oc1ccccc1 [sofosbuvir] and print it.
Response given: -1.375

Challenge: Retrieve % GPCR activation compared to TPA measured for CCC(CC)COC(=O)[C@H](C)N[P@](=O)(OC[C@H]1O[C@@](C#N)(c2ccc3c(N)ncnn23)[C@H](O)[C@@H]1O)Oc1ccccc1 [remdesivir] and print it.
Response given: 10.99

Challenge: Retrieve % GPCR activation compared to TPA measured for N#C[C@@]1(c2ccc3c(N)ncnn23)O[C@H](CO)[C@@H](O)[C@H]1O [GS441524] and print it.
Response given: -8.135

Challenge: Retrieve % GPCR activation compared to TPA measured for NC(=O)c1nc(F)cnc1O [favipiravir, 6-fluoro-3-hydroxy-2-pyrazinecarboxamide] and print it.
Response given: 7.4
